Kindly supply the reported fraction unbound at 4 h, 1 µM values for the records listed here.
Assay Text: Plasma protein binding (RED dialysis), mouse
Format: in vitro ADME
Experimental Context: male, CD-1 (ICR), pH 7.4
One number for each entry.

Here is how some compounds turned out for fraction unbound at 4 h, 1 µM.
> print(dat)
                                   compound              property.measured  observed.result
1  Cc1nc(N)c2c(-c3ccc(NC(=O)[C@H](O)c4cccc(F)c4)c(F)c3F)cn(C)c2n1 [Compound 70]  fraction unbound at 4 h, 1 µM            0.003
2  Cc1nc(N)c2c(-c3ccc(NC(=O)[C@H](O)c4cccc(F)c4)c(F)c3C)cn(C)c2n1 [Compound 65]  fraction unbound at 4 h, 1 µM            0.007
3  Cc1nc(N)c2c(-c3ccc(NC(=O)[C@H](O)c4cccc(F)c4)cc3C)cn(C)c2n1 [Compound 24]  fraction unbound at 4 h, 1 µM            0.006
4  Cc1nc(N)c2c(-c3ccc(NC(=O)[C@H](O)c4cccc(Cl)c4)cc3F)cn(C)c2n1 [Compound 48]  fraction unbound at 4 h, 1 µM            0.002
5  Cc1nc(N)c2c(-c3ccc(NC(=O)[C@H](O)c4cccc(C(F)(F)F)c4)cc3C)cn(C)c2n1 [Compound 26]  fraction unbound at 4 h, 1 µM            0.001
6  Cc1nc(N)c2c(-c3cc(F)c(NC(=O)[C@H](O)c4cccc(F)c4)cc3C)cn(C)c2n1 [Compound 66]  fraction unbound at 4 h, 1 µM            0.012
7  Cc1nc(N)c2c(-c3ccc(NC(=O)[C@H](O)c4cc(F)cc(F)c4)cc3C)cn(C)c2n1 [Compound 38]  fraction unbound at 4 h, 1 µM            0.008

Exercise: Please report the recorded fraction unbound at 4 h, 1 µM for Cc1cc(F)cc([C@@H](O)C(=O)Nc2ccc(-c3cn(C)c4nc(C)nc(N)c34)c(C)c2)c1 [Compound 41] .
Key: 0.001

* * *

Assay Text: Metabolic clearance in hepatocytes, human
Type: in vitro ADME
Experimental Context: male, pooled cryopreserved human hepatocytes (ten donors), read-out: Hepatocyte Clearance (t1/2 min) Human
Kindly supply the reported half-life at 1 µM values for the records listed here.
One number for each entry, in h.

> print(dat)
                                   compound  observed.result
1  Cc1nc(N)c2c(-c3ccc(NC(=O)[C@H](O)c4cccc(Cl)c4)cc3C)cn(C)c2n1 [Compound 28]               13
2  Cc1nc(N)c2c(-c3ccc(NC(=O)[C@H](O)c4cccc(C(F)(F)F)c4)cc3C)cn(C)c2n1 [Compound 26]             3.23

# ---- query compound ----
Exercise: Please report the recorded half-life at 1 µM for Cc1nc(N)c2c(-c3ccc(NC(=O)[C@H](O)c4cccc(Cl)c4)cc3F)cn(C)c2n1 [Compound 48] .
Key: 9.27

* * *

Kindly supply the reported bioavailability values for the records listed here.
Assay Text: Mouse plasma PK after oral gavage
Type: in vivo
Experimental Context: female, CD1, mouse, mice, 10 mg/kg PO
Numbers only, in %.

Here is how some compounds turned out for bioavailability.
> print(dat)
                           molecular.string  observed.result
1  Cc1nc(N)c2c(-c3ccc(NC(=O)[C@H](O)c4cccc(Cl)c4)cc3C)cn(C)c2n1               84
2  Cc1nc(N)c2c(-c3ccc(NC(=O)[C@H](O)c4cccc(C(F)(F)F)c4)cc3C)cn(C)c2n1               82
3  Cc1nc(N)c2c(-c3cc(F)c(NC(=O)[C@H](O)c4cccc(F)c4)cc3C)cn(C)c2n1              126
4  Cc1nc(N)c2c(-c3ccc(NC(=O)[C@H](O)c4cccc(Cl)c4)cc3F)cn(C)c2n1               70
5  Cc1cc(F)cc([C@@H](O)C(=O)Nc2ccc(-c3cn(C)c4nc(C)nc(N)c34)c(C)c2)c1               40

# ---- query compound ----
Exercise: Please report the recorded bioavailability for `Cc1nc(N)c2c(-c3ccc(NC(=O)[C@H](O)c4cccc(F)c4)c(F)c3C)cn(C)c2n1` .
Key: 129

* * *

Target Of Assay: PERK (Homo sapiens, UniProt Q9NZJ5)
Sequence (Q9NZJ5 30-1116): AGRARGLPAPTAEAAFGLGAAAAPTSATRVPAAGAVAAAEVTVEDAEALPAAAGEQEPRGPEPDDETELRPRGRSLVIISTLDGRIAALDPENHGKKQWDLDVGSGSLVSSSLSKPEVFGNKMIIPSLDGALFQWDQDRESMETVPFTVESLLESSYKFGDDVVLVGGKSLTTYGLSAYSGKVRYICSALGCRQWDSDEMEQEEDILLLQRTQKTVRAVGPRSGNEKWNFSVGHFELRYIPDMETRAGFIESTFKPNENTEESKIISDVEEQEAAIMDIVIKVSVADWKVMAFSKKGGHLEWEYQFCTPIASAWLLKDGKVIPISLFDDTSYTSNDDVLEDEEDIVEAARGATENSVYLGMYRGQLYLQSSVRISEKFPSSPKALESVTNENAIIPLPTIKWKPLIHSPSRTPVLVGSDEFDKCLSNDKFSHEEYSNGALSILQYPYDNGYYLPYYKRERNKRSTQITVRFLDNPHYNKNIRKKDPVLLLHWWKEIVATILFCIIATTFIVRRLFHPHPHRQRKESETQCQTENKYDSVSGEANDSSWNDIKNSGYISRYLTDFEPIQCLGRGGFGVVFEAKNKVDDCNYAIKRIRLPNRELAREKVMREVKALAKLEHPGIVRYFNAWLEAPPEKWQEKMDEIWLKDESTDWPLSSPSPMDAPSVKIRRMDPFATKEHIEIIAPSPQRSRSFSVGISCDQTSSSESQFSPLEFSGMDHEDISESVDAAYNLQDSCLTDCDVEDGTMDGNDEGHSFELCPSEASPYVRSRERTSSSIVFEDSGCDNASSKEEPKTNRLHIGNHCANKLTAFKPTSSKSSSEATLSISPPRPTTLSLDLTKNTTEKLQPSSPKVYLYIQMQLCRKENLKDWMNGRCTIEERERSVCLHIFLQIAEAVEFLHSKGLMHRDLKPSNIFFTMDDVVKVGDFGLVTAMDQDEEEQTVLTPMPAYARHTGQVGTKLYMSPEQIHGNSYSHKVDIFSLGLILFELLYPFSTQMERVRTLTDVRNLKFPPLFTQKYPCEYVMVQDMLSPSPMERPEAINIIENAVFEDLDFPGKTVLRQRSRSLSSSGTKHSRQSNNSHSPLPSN
Assay Text: PERK biochemical LanthaScreen TR-FRET assay (GFP-eIF2a phosphorylation)
Experimental Context: bound stated; read-out: biochemical potency
Kindly supply the reported IC50 values for the records listed here.

> print(dat)
                           molecular.string  observed.result
1  Cc1cc(F)cc([C@@H](O)C(=O)Nc2ccc(-c3cn(C)c4nc(C)nc(N)c34)c(F)c2)c1           < 5 nM
2  Cc1nc(N)c2c(-c3ccc(NC(=O)[C@H](O)c4cccc(Cl)c4)cc3F)cn(C)c2n1           < 5 nM

Could you report IC50 for every entry in the following list?
1. CCc1cccc([C@@H](O)C(=O)Nc2ccc(-c3cn(C)c4nc(C)nc(N)c34)c(Cl)c2)c1
2. Cc1nc(N)c2c(-c3ccc(NC(=O)[C@H](O)c4cccc(C(F)(F)F)c4)cc3F)cn(C)c2n1

Key:
["< 5 nM", "< 5 nM"]

* * *

Assay Text: Plasma protein binding (RED dialysis), rat
Format: in vitro ADME
Experimental Context: male, Sprague Dawley, pH 7.4
Property Measured: fraction unbound at 4 h, 1 µM
Give bare numbers.

> print(dat)
                                   compound              property.measured  observed.result
1  Cc1nc(N)c2c(-c3ccc(NC(=O)[C@H](O)c4cccc(C(F)(F)F)c4)cc3C)cn(C)c2n1 [Compound 26]  fraction unbound at 4 h, 1 µM            0.002
2  Cc1nc(N)c2c(-c3ccc(NC(=O)[C@H](O)c4cccc(Cl)c4)cc3C)cn(C)c2n1 [Compound 28]  fraction unbound at 4 h, 1 µM            0.003

Could you report fraction unbound at 4 h, 1 µM for every entry in the following list?
1. Cc1nc(N)c2c(-c3ccc(NC(=O)[C@H](O)c4cc(F)cc(C(F)(F)F)c4)cc3C)cn(C)c2n1 [Compound 39]
2. Cc1nc(N)c2c(-c3ccc(NC(=O)[C@H](O)c4cccc(F)c4)c(F)c3C)cn(C)c2n1 [Compound 65]
3. Cc1nc(N)c2c(-c3ccc(NC(=O)[C@H](O)c4cc(F)cc(F)c4)cc3C)cn(C)c2n1 [Compound 38]

Key:
[0.001, 0.011, 0.009]

Exercise: Please report the recorded fraction unbound at 4 h, 1 µM for Cc1nc(N)c2c(-c3cc(F)c(NC(=O)[C@H](O)c4cccc(F)c4)cc3C)cn(C)c2n1 [Compound 66] .
Key: 0.014
